System: DIPGX37 (H3.3 K27M diffuse intrinsic pontine glioma line)
assayComment: EC50 (inflection of fitted growth-inhibition curve) (log10 M)
Documented EC50 (log10 M) across a set of compounds
// return just the number, without any unit appended

Please review the following examples before continuing.
compound	testedSystem	testValue
CC(C)(C)OC(=O)Nc1ccc(-c2cc(C(=O)NCCCCCCC(=O)NO)no2)cc1	DIPGX37	-5.46
Cc1ccc(C(=O)Nc2ccc(CN3CCN(C)CC3)c(C(F)(F)F)c2)cc1C#Cc1cnc2cccnn12	DIPGX37	-5.38
CCCSc1ccc2[nH]c(NC(=O)OC)nc2c1	DIPGX37	-6.1
Nc1nc(Cl)nc2c1ncn2[C@@H]1O[C@H](CO)[C@@H](O)[C@@H]1F	DIPGX37	-5.4
CCN(CC)CCNC(=O)c1c(C)[nH]c(/C=C2\C(=O)Nc3ccc(F)cc32)c1C	DIPGX37	-4.77
COc1cc(OC2CCN(C)CC2)ccc1Nc1ncc2c(n1)n(C1CCCC1)c(=O)n2C	DIPGX37	-4.79
CC(=O)c1ccc2c(c1)c1cc(C(C)=O)ccc1n2CCNC(C)C	DIPGX37	-5.98
Cc1sc2c(c1C)C(c1ccc(Cl)cc1)=N[C@@H](CC(=O)Nc1ccc(O)cc1)c1nnc(C)n1-2	DIPGX37	-6.7
CC(C(O)c1ccc(O)cc1)N1CCC(Cc2ccccc2)CC1 (configuration not stated)	DIPGX37	-4.82
O=C(c1ccc(Nc2nccc(-c3cc4ccccc4s3)n2)cc1)N1CCC(N2CCCC2)CC1	DIPGX37	-5.52

Enquiry: Value lookup for EC50 (log10 M); key = O=C(Nc1ccc(Nc2nccc(Nc3cc(C4CCCC4)[nH]n3)n2)cc1)Nc1cccc(C(F)(F)F)c1
Return: -6.42

Enquiry: Value lookup for EC50 (log10 M); key = CCNC(=O)c1noc(-c2cc(C(C)C)c(O)cc2O)c1-c1ccc(CN2CCOCC2)cc1
Return: -7.47

Enquiry: Value lookup for EC50 (log10 M); key = CC(=O)N1c2ccc(-c3ccc(C(=O)O)cc3)cc2[C@H](Nc2ccc(Cl)cc2)C[C@@H]1C
Return: -6.37

Enquiry: Value lookup for EC50 (log10 M); key = CCCCC(CC)CNC(=N)NC(=N)NCCCCCCNC(=N)NC(=N)NCC(CC)CCCC (configuration not stated)
Return: -5.67

Enquiry: Value lookup for EC50 (log10 M); key = CCCCOc1ccc(CC(=O)NO)cc1
Return: -4.2

Enquiry: Value lookup for EC50 (log10 M); key = CCCCc1oc2ccccc2c1C(=O)c1cc(I)c(OCCN(CC)CC)c(I)c1
Return: -4.76

Enquiry: Value lookup for EC50 (log10 M); key = C[C@@H]1O[C@@H](O[C@H]2C[C@@H](O)[C@]3(CO)[C@H]4[C@H](O)C[C@]5(C)[C@@H](C6=CC(=O)OC6)CC[C@]5(O)[C@@H]4CC[C@]3(O)C2)[C@H](O)[C@H](O)[C@H]1O
Return: -6.7
